assay-procedure: CREB reporter modulators without forskolin, primary screen, cell-based, PC12, CRE-LacZ reporter, unstimulated (AID 1145)
condition-label: no forskolin, luminescence, 4.5 h, higher = more signal, called active from +8 up or from −8 down
readout-kind: z-score
I only need the number, thanks.

Req: Please look up its z-score: O=C(NO)[C@]1(Cc2ccccc2)N=C(c2ccc(OCCCO)cc2)O[C@@H]1c1ccccc1
Resp: 3.01

Req: Value lookup for z-score; key = COCCCNC(=O)[C@@]1(Cc2ccccc2CN=[N+]=[N-])COC(c2ccc(OCCCO)cc2)=N1
Resp: -0.94

Req: Which z-score is reported for this compound? CCCCC(=C=CC[C@H](O)c1cccc(OCCO)c1)CCO
Resp: 4.86

Req: Give the measured z-score of NCCCCCCNC(=O)[C@@H]1C[C@@H]2C(=O)N[C@@H](Cc3ccccc3)C(=O)N2[C@@H]1c1ccc(O)cc1 .
Resp: 1.52

Req: I have this compound here, COc1ccc([Si](C)(C)[C@H]2[C@H](CC(=O)N(CCO)Cc3ccccc3)O[C@@]3(C(=O)N(Cc4cccc(N5C(=O)COc6ccccc65)c4)c4ccccc43)[C@@H]2C)cc1 , and I need its recorded z-score.
Resp: 2.61

Req: Reported z-score for CC(CO)N1C(=O)[C@@H]2C3C(=O)OCCC/C=C\[C@H]3OC23C=CCN(Cc2ccccc2)C(=O)[C@@H]13 (stereo partly drawn) : what is it?
Resp: -0.753

Req: Which z-score value is on record for C=C(CCCC)/C(=C/C[C@H](OC(=O)c1ccncc1)c1ccc(CO)o1)c1cnc2ccccc2c1 ?
Resp: 3.77

Req: What value of z-score has been recorded for this entry: CC(C)C(CO)N1C(=O)[C@@H]2C3C(=O)OCCC/C=C\[C@H]3OC23C=CCN(C(C)C)C(=O)[C@@H]13 (stereo partly drawn)
Resp: 0.333
